# TARGET OF ASSAY: 14-3-3γ (Homo sapiens, UniProt P61981)
# Construct: made in house; host or cells: E. coli NiCo21 (DE3)
# Sequence (P61981 whole entry): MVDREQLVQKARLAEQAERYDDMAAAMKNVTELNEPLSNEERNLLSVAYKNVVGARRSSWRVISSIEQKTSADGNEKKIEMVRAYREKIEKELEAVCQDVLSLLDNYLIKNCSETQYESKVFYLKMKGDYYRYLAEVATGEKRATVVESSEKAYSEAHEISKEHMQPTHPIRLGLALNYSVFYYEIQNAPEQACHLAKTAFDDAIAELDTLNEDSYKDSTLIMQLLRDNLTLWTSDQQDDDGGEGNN
# ASSAY OVERVIEW: Fluorescence anisotropy (FA) binary binding study: 14-3-3 titrated to fluorescein-labelled peptide
# CONDITION: Table S2; from FA KD; replicate 2
Where a SMILES comes first, the peptide text is derived from it. [ ]: non-standard residue; d: D form. The star is where a group is joined. ξ: configuration not given here. FITC = O=C1OC2(c3ccc(O)cc3Oc3cc(O)ccc32)c2ccc(NC(=S)*)cc21; Phe(4-NO2) = N[C@@H](Cc1ccc([N+](=O)[O-])cc1)C(=O)O; ξAla(4-thiazolyl) = NC(Cc1cscn1)C(=O)O; pS = N[C@@H](COP(=O)(O)O)C(=O)O; β3hS = N[C@@H](CO)CC(=O)O; Nva = CCC[C@H](N)C(=O)O; ξβ3hS = NC(CO)CC(=O)O; βAla = NCCC(=O)O
Reported ΔG is given for each of the following compounds.

# COMPOUND, ΔG
measured = [
    ("C[C@H](NC(=O)[C@H](CCCCN)NC(=O)[C@H](Cc1ccc([N+](=O)[O-])cc1)NC(=O)CCNC(=O)C[C@H](CO)NC(=O)[C@H](Cc1ccc([N+](=O)[O-])cc1)NC(=O)[C@H](COP(=O)(O)O)NC(=O)C(Cc1cscn1)NC(=O)[C@@H](N)Cc1ccc([N+](=O)[O-])cc1)C(=O)N[C@@H](CCCCNC(=S)Nc1ccc2c(c1)C(=O)OC21c2ccc(O)cc2Oc2cc(O)ccc21)C(N)=O (stereo partly drawn) [2b] (H-[Phe(4-NO2)][ξAla(4-thiazolyl)][pS][Phe(4-NO2)][β3hS][βAla][Phe(4-NO2)]KAK(FITC)-NH2)", "-9,50 kcal/mol"),
    ("C[C@H](NC(=O)[C@H](CCCCN)NC(=O)[C@H](Cc1ccc([N+](=O)[O-])cc1)NC(=O)CCNC(=O)C[C@H](CO)NC(=O)[C@H](Cc1ccc([N+](=O)[O-])cc1)NC(=O)[C@@H](N)COP(=O)(O)O)C(=O)N[C@@H](CCCCNC(=S)Nc1ccc2c(c1)C(=O)OC21c2ccc(O)cc2Oc2cc(O)ccc21)C(N)=O [2d] (H-[pS][Phe(4-NO2)][β3hS][βAla][Phe(4-NO2)]KAK(FITC)-NH2)", "-7,61 kcal/mol"),
    ("CCC[C@H](NC(=O)[C@H](N)CCCCN)C(=O)N[C@@H](Cc1ccc([N+](=O)[O-])cc1)C(=O)NC(Cc1cscn1)C(=O)N[C@@H](COP(=O)(O)O)C(=O)N[C@@H](Cc1ccc([N+](=O)[O-])cc1)C(=O)NC(CO)CC(=O)NCCC(=O)N[C@@H](Cc1ccc([N+](=O)[O-])cc1)C(=O)N[C@@H](CCCCN)C(N)=O (stereo partly drawn) [compound 1] (H-[dK][Nva][Phe(4-NO2)][ξAla(4-thiazolyl)][pS][Phe(4-NO2)][ξβ3hS][βAla][Phe(4-NO2)]K-NH2)", "-10,56 kcal/mol"),
    ("CCC[C@H](N)C(=O)N[C@@H](Cc1ccc([N+](=O)[O-])cc1)C(=O)NC(Cc1cscn1)C(=O)N[C@@H](COP(=O)(O)O)C(=O)N[C@@H](Cc1ccc([N+](=O)[O-])cc1)C(=O)N[C@@H](CO)CC(=O)NCCC(=O)N[C@@H](Cc1ccc([N+](=O)[O-])cc1)C(=O)N[C@@H](CCCCN)C(=O)N[C@@H](C)C(=O)N[C@@H](CCCCNC(=S)Nc1ccc2c(c1)C(=O)OC21c2ccc(O)cc2Oc2cc(O)ccc21)C(N)=O (stereo partly drawn) [2a] (H-[Nva][Phe(4-NO2)][ξAla(4-thiazolyl)][pS][Phe(4-NO2)][β3hS][βAla][Phe(4-NO2)]KAK(FITC)-NH2)", "-10,00 kcal/mol"),
    ("C[C@H](NC(=O)[C@H](CCCCN)NC(=O)[C@H](Cc1ccc([N+](=O)[O-])cc1)NC(=O)CCNC(=O)C[C@H](CO)NC(=O)[C@H](Cc1ccc([N+](=O)[O-])cc1)NC(=O)[C@H](COP(=O)(O)O)NC(=O)C(N)Cc1cscn1)C(=O)N[C@@H](CCCCNC(=S)Nc1ccc2c(c1)C(=O)OC21c2ccc(O)cc2Oc2cc(O)ccc21)C(N)=O (stereo partly drawn) [2c] (H-[ξAla(4-thiazolyl)][pS][Phe(4-NO2)][β3hS][βAla][Phe(4-NO2)]KAK(FITC)-NH2)", "-9,88 kcal/mol"),
]
